Data provenance is patent US20210084902A1.

Test system: Pyricularia oryzae
Test Protocol: microbe, parasite or virus in culture
Assay type: cell-based
Test Context: Pyricularia oryzae, 168 h, read-out: Observed efficacy
Measurement Type: inhibition of growth at 4 ppm
Write the numeric value and follow it with the unit.

> print(dat)
                              molecule  observed.measurement
1  CNC(=O)c1ccc(-c2noc(C(F)(F)F)n2)cc1                   12%
2  CNC(=S)c1ccc(-c2noc(C(F)(F)F)n2)cc1                   32%

Identify measured inhibition of growth at 4 ppm corresponding to `Cc1ccc(-c2c(Cl)nc(C#N)n2S(=O)(=O)N(C)C)cc1` 13%

Return reported inhibition of growth at 4 ppm. Input molecule: COC(=O)C(C)N(C(=O)Cc1ccccc1)c1c(C)cccc1C (stereo not shown) 8%

Give recorded inhibition of growth at 4 ppm. `COc1ccc(C(=CC(=O)N2CCOCC2)c2ccc(Cl)cc2)cc1OC` 8%

Fill in reported inhibition of growth at 4 ppm for this entry: `O=C(Nc1ccccc1-c1ccc(Cl)cc1)c1cccnc1Cl` 5%

Return the recorded inhibition of growth at 4 ppm value; entry: `O=C(Nc1ccccc1F)c1ccc(-c2noc(C(F)(F)F)n2)cc1` 5%

====

Tested on: Septoria tritici
Test Protocol: Fungicidal activity against Septoria tritici, micro titer plate (MTP) test
Assay type: cell-based
Test Context: Zymoseptoria tritici, 168 h; Table V.4; component B alone, 0.25 ppm; read-out: Observed efficacy
Measurement Type: inhibition of growth at […] (%)
Supply the numeric figure in %, leaving out any unit text.

Answered examples (2):
> print(dat)
                                   compound   subject.of.test  scale.unit  observed.measurement
1  CC[C@H]1CC(C)(C)c2cccc(NC(=O)c3cccnc3C(F)F)c21  Septoria tritici           %                    17
2  CC(Cc1ccc(C(C)(C)C)cc1)CN1C[C@@H](C)O[C@@H](C)C1 (stereo partly shown)  Septoria tritici           %                     0

Could you please provide reported inhibition of growth at […] for Cc1nn(C)cc1C(=O)Nc1cccc2c1C(C)CC2(C)C (stereo not shown) ? Thanks! 25

Note inhibition of growth at […] for the compound shown: `CC(C)c1ccc(Cl)cc1CN(C(=O)c1c(C(F)F)nn(C)c1F)C1CC1` 61

Identify the reported inhibition of growth at […] for the following entry. `O=C(NCCc1ncc(C(F)(F)F)cc1Cl)c1ccccc1C(F)(F)F` 33

State its inhibition of growth at […]: CC1CC(C)(C)c2cccc(NC(=O)c3cccnc3C(F)F)c21 (stereo not shown) 22

Supply recorded inhibition of growth at […] for `N#Cc1c(Cl)c(Cl)c(Cl)c(C#N)c1Cl` here. 25

====

System: Pyricularia oryzae
Test Protocol: microbe, parasite or virus in culture
Format: cell-based
Test Context: Pyricularia oryzae, 168 h, read-out: Observed efficacy
Measurement Type: inhibition of growth at 1 ppm (%)
Please respond with the number in % and leave the unit unwritten.

> print(dat)
                                   compound               measurement.type  observed.measurement
1  CC(Cc1ccc(C(C)(C)C)cc1)CN1C[C@@H](C)O[C@@H](C)C1 (some centres unmarked) [Fenpropimorph, fenpropimorph]  inhibition of growth at 1 ppm                     8
2  O=C1c2ccccc2C(=O)N1SC(Cl)(Cl)Cl [Folpet, folpet]  inhibition of growth at 1 ppm                    14
3  CNC(=S)c1ccc(-c2noc(C(F)(F)F)n2)cc1 [I.M]  inhibition of growth at 1 ppm                     9

GET inhibition of growth at 1 ppm where system = Pyricularia oryzae and item = CC(C)c1ccc(Cl)cc1CN(C(=O)c1c(C(F)F)nn(C)c1F)C1CC1 [Isoflucypram] 11

Determine reported inhibition of growth at 1 ppm for CNC(=O)c1ccc(-c2noc(C(F)(F)F)n2)cc1 [I.A] ; test system: Pyricularia oryzae. 6

Name the recorded inhibition of growth at 1 ppm of COC(=O)C(C)N(C(=O)Cc1ccccc1)c1c(C)cccc1C (centres unmarked) [Benalaxyl, benalaxyl] , assay system Pyricularia oryzae. 2

# lookup: Pyricularia oryzae inhibition of growth at 1 ppm, key = CO/N=C(/C(=O)OC)c1ccccc1COc1ccccc1C [Kresoximmethyl] 58

Using Pyricularia oryzae as the test system, report measured inhibition of growth at 1 ppm of CCCOCC(C)Oc1nc(C)c(N=CN(C)CC)cc1Br (centres unmarked) [K.1.54] . 19

Give inhibition of growth at 1 ppm; test system Pyricularia oryzae; compound Cn1nc(C(F)F)c(C(=O)Nc2ccccc2Oc2ccc(C(F)(F)F)cc2Cl)c1F [A.3.29] 14

Report its inhibition of growth at 1 ppm with Pyricularia oryzae as the test system: Cc1cc(C2CC2)nc(Nc2ccccc2)n1 [Cyprodinil, cyprodinil] 56
